target: rat mGlu2 receptor (Rattus norvegicus); construct: expressed in transfected cells; vector pcD1mGR2; test: [3H]-LY354740 binding on mGlu2 transfected CHO cell membranes; conditions: inhibition of 10 nM [3H]-LY354740 binding, mGlu2 transfected CHO cell membranes, room temperature, 1 hour; read-out: Ki mGlu2
Sequence (P31421 19-872): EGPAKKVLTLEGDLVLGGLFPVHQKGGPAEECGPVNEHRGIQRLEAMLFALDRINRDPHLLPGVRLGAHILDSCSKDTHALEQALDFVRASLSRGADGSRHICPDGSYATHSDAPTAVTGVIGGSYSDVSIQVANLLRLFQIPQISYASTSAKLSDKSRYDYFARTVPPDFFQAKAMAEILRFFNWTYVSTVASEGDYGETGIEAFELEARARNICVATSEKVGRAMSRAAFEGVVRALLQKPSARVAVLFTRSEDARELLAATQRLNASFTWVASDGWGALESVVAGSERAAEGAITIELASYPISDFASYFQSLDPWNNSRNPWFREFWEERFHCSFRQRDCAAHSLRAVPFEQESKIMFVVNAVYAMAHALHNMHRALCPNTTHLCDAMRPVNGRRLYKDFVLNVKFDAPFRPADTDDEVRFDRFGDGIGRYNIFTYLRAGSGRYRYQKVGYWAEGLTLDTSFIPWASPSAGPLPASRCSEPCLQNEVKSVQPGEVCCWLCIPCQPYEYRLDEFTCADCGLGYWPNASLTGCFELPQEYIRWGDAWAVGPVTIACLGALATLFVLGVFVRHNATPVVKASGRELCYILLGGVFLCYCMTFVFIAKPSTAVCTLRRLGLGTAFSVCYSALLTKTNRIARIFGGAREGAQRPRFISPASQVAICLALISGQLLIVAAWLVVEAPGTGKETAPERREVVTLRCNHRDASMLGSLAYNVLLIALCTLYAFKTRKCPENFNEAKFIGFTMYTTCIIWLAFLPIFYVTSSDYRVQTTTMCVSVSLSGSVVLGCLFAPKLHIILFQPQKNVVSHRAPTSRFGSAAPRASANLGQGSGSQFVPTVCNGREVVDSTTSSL
parameter-measured: Ki (nM)

Cc1cccc(-c2cccc(C3=Nc4cc(N(C)C)c(C(F)(F)F)cc4NC(=O)C3)c2)n1 = 18.8

P = CC(C)CNc1cc2c(cc1C(F)(F)F)NC(=O)CC(c1cccc(-c3ccncc3)c1)=N2
Q = Cc1cc(-c2cccc(C3=Nc4cc(N(C)CC(C)C)c(Cl)cc4NC(=O)C3)c2)cc(C)n1
Min Ki? P | Q Respond using the label that marks the chosen record.
Q

P = Cc1cc(-c2cccc(C3=Nc4cc(C)c(C(F)(F)F)cc4NC(=O)C3)c2)nc(NCCO)n1
Q = O=C1CC(c2cccc(-c3cccnc3)c2)=Nc2ccc(OCC(F)(F)F)cc2N1
Would you let me know which has the greater Ki value, P or Q ? Respond using the label that marks the chosen record.
Q

P = COCCOc1cc2c(cc1C(F)(F)F)NC(=O)CC(c1cccc(-c3ccnc(C#N)c3)c1)=N2
Q = O=C1CC(c2cccc(-c3ccncc3)c2)=Nc2cc(OCC(F)(F)F)c(C(F)(F)F)cc2N1
Min Ki? P | Q Respond using the label that marks the chosen record.
Q

P = COc1cc2c(cc1C(F)(F)F)NC(=O)CC(c1cccc(-c3ccccn3)c1)=N2
Q = Cc1cc(-c2cccc(C3=Nc4cc(Cl)c(Cl)cc4NC(=O)C3)c2)cc(C)[n+]1[O-]
Min Ki? P | Q Respond using the label that marks the chosen record.
Q
(Q: 16.5 nM, P: 27 nM)
